# study_system: Full length human PD1 (huPD1) on cells (human, UniProt Q15116 25-288)
# Sequence (Q15116 25-288 limits assumed): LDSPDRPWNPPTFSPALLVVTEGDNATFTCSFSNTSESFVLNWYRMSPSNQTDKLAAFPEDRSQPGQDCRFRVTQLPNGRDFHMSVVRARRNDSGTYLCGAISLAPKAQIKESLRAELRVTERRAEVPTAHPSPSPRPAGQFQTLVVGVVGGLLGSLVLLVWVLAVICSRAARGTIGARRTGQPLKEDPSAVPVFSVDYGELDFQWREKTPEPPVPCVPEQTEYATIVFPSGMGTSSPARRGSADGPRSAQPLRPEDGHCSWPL
# assay_explanation: cell-based or functional assay
Give MLR EC50, nM (IFN-γ induction) for every item shown.
Provide the measurement as a number trailed by its unit.

{"columns": ["binder", "MLR EC50, nM (IFN-γ induction)"],
 "data": [
  ["PD1B243 (antibody, human IgG4 S228P, kappa, V domains shown) VH: EVQLVESGGGLVQPGGSLRLSCAASGFAFSRYDMSWVRQAPGKGLESVAYISGGGANTYYLDNVKGRFTISRDNAKNSLYLQMNSLRAEDTAVYYCASPYLSYFDVWGQGTLVTVSS VL: EIVMTQSPATLSVSPGERATLSCRASQSLSDYLHWYQQKPGQAPRLLIKSASQSISGIPARFSGSGSGTEFTLTISSLQSEDFAVYYCQNGHSFPYTFGQGTKLEIKR", "0.07 nM"]
]}

Provide each entry's MLR EC50, nM (IFN-γ induction) from the list below.
1. PD1B244 (antibody, human IgG4 S228P, kappa, V domains shown) VH: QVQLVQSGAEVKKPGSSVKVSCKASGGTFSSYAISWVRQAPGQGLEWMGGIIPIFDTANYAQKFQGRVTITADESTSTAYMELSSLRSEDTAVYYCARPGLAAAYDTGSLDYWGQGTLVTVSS VL: EIVLTQSPATLSLSPGERATLSCRASQSVRSYLAWYQQKPGQAPRLLIYDASNRATGIPARFSGSGSGTDFTLTISSLEPEDFAVYYCQQRNYWPLTFGQGTKVEIKR
2. PD1B196 (antibody, V domains shown, also called PD1H170/PD1L148) VH: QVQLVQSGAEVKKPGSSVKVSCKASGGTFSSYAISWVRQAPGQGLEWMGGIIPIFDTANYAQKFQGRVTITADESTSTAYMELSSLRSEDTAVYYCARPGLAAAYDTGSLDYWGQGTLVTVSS VL: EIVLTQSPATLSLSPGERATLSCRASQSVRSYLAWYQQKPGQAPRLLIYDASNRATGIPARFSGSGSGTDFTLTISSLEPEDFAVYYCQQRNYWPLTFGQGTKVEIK

[A]
["0.08 nM", "0.14 nM"]

Noted for PD1B199 (antibody, V domains shown, also called PD1H164/PD1L86) VH: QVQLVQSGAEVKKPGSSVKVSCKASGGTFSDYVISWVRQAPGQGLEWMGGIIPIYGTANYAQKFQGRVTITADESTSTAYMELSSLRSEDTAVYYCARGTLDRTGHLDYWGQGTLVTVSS VL: EIVLTQSPATLSLSPGERATLSCRASQSVSSYLAWYQQKPGQAPRLLIHDASTRATGIPARFSGSGSGTDFTLTISSLEPEDFAVYYCQQRNYWPLTFGQGTKVEIK : its MLR EC50, nM (IFN-γ induction) reads 0.63 nM
